Reference source for all entries: patent US4607024A

test: in vivo; design: species or system Wistar rats of both sexes; conditions: rat, rats, intravenous, read-out: LD50
Structures can show the parent of a compound that is named as a salt.
Observation type: LD50

query: For the compound CO[C@@H]1[C@@H](O[C@@H]2O[C@H](C)[C@@H](O[C@H]3C[C@@](C)(O)[C@@H](OC(=O)CC(C)C)[C@H](C)O3)[C@H](N(C)C)[C@H]2O)[C@@H](CC=O)C[C@@H](C)[C@@H](O)/C=C/C=C/C[C@@H](C)OC(=O)C[C@H]1OC(C)=O [salt of formula (I)] , what LD50 is on record?
result: 418 mg/kg

* * *

assay: in vivo; parameters: species or system Swiss mice of both sexes; conditions: mouse, mice, intravenous, read-out: LD50
Structures can show the parent of a compound that is named as a salt.
Observation type: LD50 (mg/kg)
Quick note: give the figure in mg/kg, leave out the unit.

query: # get_value(readout='LD50', item= CO[C@@H]1[C@@H](O[C@@H]2O[C@H](C)[C@@H](O[C@H]3C[C@@](C)(O)[C@@H](OC(=O)CC(C)C)[C@H](C)O3)[C@H](N(C)C)[C@H]2O)[C@@H](CC=O)C[C@@H](C)[C@@H](O)/C=C/C=C/C[C@@H](C)OC(=O)C[C@H]1OC(C)=O [salt of formula (I)] )
result: 386

* * *

test: in vivo; parameters: species or system Wistar rats of both sexes; conditions: rat, rats, oral, could not be determined, no deaths up to 5000 mg/kg, read-out: oral LD50
Counter-ions that a name gives are not always drawn.
Observation type: LD50

query: Sample CO[C@@H]1[C@@H](O[C@@H]2O[C@H](C)[C@@H](O[C@H]3C[C@@](C)(O)[C@@H](OC(=O)CC(C)C)[C@H](C)O3)[C@H](N(C)C)[C@H]2O)[C@@H](CC=O)C[C@@H](C)[C@@H](O)/C=C/C=C/C[C@@H](C)OC(=O)C[C@H]1OC(C)=O [salt of formula (I)] — what was its LD50?
result: > 5000 mg/kg
